The reader will find reported Dose–weight-adjusted median concentration values listed item by item below.
# Test: Therapeutic drug monitoring: steady-state residual plasma concentrations by LC-MS/MS
# Format: in vivo, human
# Assay Setup: children
Reported Property: Dose–weight-adjusted median concentration

> print(dat)
                            chemical.smiles       assay.result
1  O=C(c1ccc(F)c(F)c1Nc1ccc(I)cc1F)N1CC(O)([C@@H]2CCCCN2)C1   62.6 ng/mL/mg/kg
2  CC(=O)Nc1cccc(-n2c(=O)n(C3CC3)c(=O)c3c(Nc4ccc(I)cc4F)n(C)c(=O)c(C)c32)c1  538.5 ng/mL/mg/kg
3  Cn1cnc2c(F)c(Nc3ccc(Br)cc3F)c(C(=O)NOCCO)cc21   14.6 ng/mL/mg/kg
4  CC(C)(C)c1nc(-c2cccc(NS(=O)(=O)c3c(F)cccc3F)c2F)c(-c2ccnc(N)n2)s1   19.1 ng/mL/mg/kg

---

Reported values of Median concentration for individual entries
# Test: Therapeutic drug monitoring: steady-state residual plasma concentrations by LC-MS/MS
# Format: in vivo, human
# Assay Setup: children; residual plasma concentration at steady state
Reported Property: Median concentration

> print(dat)
                            chemical.smiles     reported.property  assay.result
1  CC(C)(C)c1nc(-c2cccc(NS(=O)(=O)c3c(F)cccc3F)c2F)c(-c2ccnc(N)n2)s1  Median concentration    18.4 ng/mL
2  O=C(c1ccc(F)c(F)c1Nc1ccc(I)cc1F)N1CC(O)([C@@H]2CCCCN2)C1  Median concentration    64.3 ng/mL
3  CC(=O)Nc1cccc(-n2c(=O)n(C3CC3)c(=O)c3c(Nc4ccc(I)cc4F)n(C)c(=O)c(C)c32)c1  Median concentration     9.7 ng/mL
4  Cn1cnc2c(F)c(Nc3ccc(Br)cc3F)c(C(=O)NOCCO)cc21  Median concentration     100 ng/mL

Taken from paper PMC10818921.
